The reported measurements were obtained from patent US11197846B2.

test: Plasma pharmacokinetics of nabilone and gabapentin after oral PP-01 once daily for four doses (LC-MS/MS), Example 1 clinical study; conditions: human, plasma, oral, 600 mg, AUC0-24, gabapentin 600 mg; Sequence AB; Days 1-2; arithmetic mean
quantity_name: AUC(0-t) (ng·h/mL)

NCC1(CC(=O)O)CCCCC1 65700

----------
test: Plasma pharmacokinetics of nabilone and gabapentin after oral PP-01 once daily for four doses (LC-MS/MS), Example 1 clinical study; details: human, plasma, oral, 600 mg, Cmax, gabapentin 600 mg; Sequence AB; Days 1-2; arithmetic mean

molecule	Cmax, ng/mL
NCC1(CC(=O)O)CCCCC1 [Gabapentin, 1-(aminomethyl)cyclohexaneacetic acid]	6080
